molecular target: pooled human IgG
Assignment: determine reported Enzyme Activity Endpoint Assay (purified): IgG for the given proteins.
Please reply with the bare figure in ng/µL and do not write the unit itself.

Using the record for PRT-139 (protein) MRNATEAYAKEVPHQITSVWTKGVTPLTPEQFRYNNEDVIHAPYLANQGWYDITKAFDGKDNLLCGAATAGNMLHWWFDQNKTEIEAYLSKHPEKQKIIFNNQELFDLKAAIDTKDSQTNSQLFNYFRDKAFPNLSARQLGVMPDLVLDMFINGYYLNVFKTQSTDVNRPYQDKDKRGGIFDAVFTRGDQTTLLTARHDLKNKGLNDISTIIKQELTEGRALALSHTYANVSISHVINLWGADFNAEGNLEAIYVTDSDANASIGMKKYFVGINAHGHVAISAKKIEGENIGAQVLGLFTLSSGKDIWQKLS , state its measured Enzyme Activity Endpoint Assay (purified): IgG. 0

Using the record for PRT-233 (protein) MEVVEVWPYGQNPNGKTEILSQTEDSESLQRLRDIEDFQAEKKMQNVVYTKWLDGVDVKDHDFRKIVDGNIAYYATPLLNGRGFYDINKDFNRDSDKCAAAVAANMFHYWLDRNRDNVDRFLRQNPEKHGIIELPDGQLKLSDFLNTYESDHGYRDKSKLFDFISNNFNGPVWTDKLLDNYINGYAYNYKYGRTIEDPTKNTSKINFFKEVFNEKILTNNHSIRNQNEFSVLLSEALYTGKAIGLSYGPAGLRHSLGHIISVWGADLDADGNVVAIYVTDSDDKKLTIGDERVGLKRYKISTDDENRLRLTAYEETHNTGGQIRGLWTLDTGKYAWADYFDKTEQTGTDQAEQLEHHHHHH , state its measured Enzyme Activity Endpoint Assay (purified): IgG. 596

All figures here come from patent US20250027068.
